Measured Kd by item
TARGET OR SYSTEM: T1, human VEGF (hVEGF) (human, UniProt P15692 181-395)
T1 construct: also called VEGF-A
T1 sequence: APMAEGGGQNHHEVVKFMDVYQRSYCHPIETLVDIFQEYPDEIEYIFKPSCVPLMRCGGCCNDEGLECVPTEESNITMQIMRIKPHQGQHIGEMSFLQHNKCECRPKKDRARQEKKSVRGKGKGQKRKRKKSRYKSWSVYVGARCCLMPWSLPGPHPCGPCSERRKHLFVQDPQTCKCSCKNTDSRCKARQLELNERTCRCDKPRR
TEST METHOD NOTES: SPR single-cycle;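 further: fab variants injected over hVEGF immobilized on a CM5 chip (Biacore T200), threefold dilution series from 0.02 to 50 nM, kinetics fitted with a 1:1 Langmuir model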
MEASURED METRIC: Kd (nM)

• G6.31 HC-K75E (Fab, name in Kabat numbering, V domains shown, Fab) VH: EVQLVESGGGLVQPGGSLRLSCAASGFTISDYWIHWVRQAPGKGLEWVAGITPAGGYTYYADSVKGRFTISADTSENTAYLQMNSLRAEDTAVYYCARFVFFLPYAMDYWGQGTLVTVSS VL: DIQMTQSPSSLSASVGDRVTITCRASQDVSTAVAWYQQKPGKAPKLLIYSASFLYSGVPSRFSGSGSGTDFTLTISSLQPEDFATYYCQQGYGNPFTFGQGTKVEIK = 2.04
• G6.31 LC-T31R (Fab, V domains shown, Fab) VH: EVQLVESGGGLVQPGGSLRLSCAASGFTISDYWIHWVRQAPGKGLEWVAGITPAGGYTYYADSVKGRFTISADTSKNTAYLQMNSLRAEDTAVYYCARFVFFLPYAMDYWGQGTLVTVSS VL: DIQMTQSPSSLSASVGDRVTITCRASQDVSRAVAWYQQKPGKAPKLLIYSASFLYSGVPSRFSGSGSGTDFTLTISSLQPEDFATYYCQQGYGNPFTFGQGTKVEIK = 1.8
• G6.31 LC-G57E (Fab, V domains shown, Fab) VH: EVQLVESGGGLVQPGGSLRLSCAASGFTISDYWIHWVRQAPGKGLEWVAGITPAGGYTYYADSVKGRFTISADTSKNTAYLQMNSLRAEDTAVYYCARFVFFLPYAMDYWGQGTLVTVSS VL: DIQMTQSPSSLSASVGDRVTITCRASQDVSTAVAWYQQKPGKAPKLLIYSASFLYSEVPSRFSGSGSGTDFTLTISSLQPEDFATYYCQQGYGNPFTFGQGTKVEIK = 0.974
• G6.31 HC-K43E (Fab, name in Kabat numbering, V domains shown, Fab) VH: EVQLVESGGGLVQPGGSLRLSCAASGFTISDYWIHWVRQAPGEGLEWVAGITPAGGYTYYADSVKGRFTISADTSKNTAYLQMNSLRAEDTAVYYCARFVFFLPYAMDYWGQGTLVTVSS VL: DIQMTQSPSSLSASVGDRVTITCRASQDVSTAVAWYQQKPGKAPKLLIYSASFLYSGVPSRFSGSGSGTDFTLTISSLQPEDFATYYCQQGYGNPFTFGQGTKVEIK = 1.27
• G6.31 HC-N76E (Fab, name in Kabat numbering, V domains shown, Fab) VH: EVQLVESGGGLVQPGGSLRLSCAASGFTISDYWIHWVRQAPGKGLEWVAGITPAGGYTYYADSVKGRFTISADTSKETAYLQMNSLRAEDTAVYYCARFVFFLPYAMDYWGQGTLVTVSS VL: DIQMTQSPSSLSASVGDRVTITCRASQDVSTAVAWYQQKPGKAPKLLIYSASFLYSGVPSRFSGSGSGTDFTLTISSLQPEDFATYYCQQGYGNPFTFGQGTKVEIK = 1.72
